B1: Pistol ribozyme (parent)
chain: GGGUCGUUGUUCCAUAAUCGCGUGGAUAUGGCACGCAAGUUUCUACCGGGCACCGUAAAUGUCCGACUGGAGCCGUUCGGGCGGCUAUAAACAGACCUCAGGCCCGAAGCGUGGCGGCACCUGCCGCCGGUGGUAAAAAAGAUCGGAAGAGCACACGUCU

Variants of: B1
Assay: aptazyme ON/OFF ratio, guanine; higher = stronger switching; co-transcriptional cleavage with and without guanine
measured_endpoint: aptazyme ON/OFF ratio
Could you respond with only the numeric value?

{"mutant_label": "U7A U8G G9U U11A C12G C13U", "endpoint_value": 1.39}
{"mutant_label": "U7A U8C G9A U10A U11G C12U C13A", "endpoint_value": 1.2}
{"mutant_label": "U8C U11A C12A C13A", "endpoint_value": 1.32}

Short answer for U8G U10C U11C C12A : aptazyme ON/OFF ratio was 1.09
